Test system: 521955-158-R2-J5-PDC complex spheroid viability
TEST_DETAILS: Anticancer human tumor 521955-158-R2-J5-PDC patient-derived pancreatic carcinoma cell line growth inhibition [GQUAD]
MEASUREMENT_CONTEXT: second compound 3.16 µM; first compound 0.00999 µM; active compounds read low
# viability, T/C per entry
RECORDED_ENDPOINT: viability, T/C (%)

{"COMPOUND": "Cc1[nH]c2ccccc2c1CCNCc1ccc(/C=C/C(=O)NO)cc1 + Cc1[nH]c2ccc(F)cc2c1-c1nc2c3cccnc3c3ncccc3c2[nH]1", "RECORDED_ENDPOINT": "viability, T/C", "UNIT": "%", "VALUE": 118}
{"COMPOUND": "Cc1[nH]c2ccccc2c1CCNCc1ccc(/C=C/C(=O)NO)cc1 + Cc1cnc(CNC(=O)c2c(=O)c3ccc(N4CCCN(C)CC4)nc3n3c2sc2ccccc23)cn1", "RECORDED_ENDPOINT": "viability, T/C", "UNIT": "%", "VALUE": 14.7}
{"COMPOUND": "Cn1ncnc1[C@H]1c2n[nH]c(=O)c3cc(F)cc(c23)N[C@@H]1c1ccc(F)cc1 + Cc1cnc(CNC(=O)c2c(=O)c3ccc(N4CCCN(C)CC4)nc3n3c2sc2ccccc23)cn1", "RECORDED_ENDPOINT": "viability, T/C", "UNIT": "%", "VALUE": 20.8}

* * *

Test system: 521955-158-R2-J5-PDC complex spheroid viability
TEST_DETAILS: Anticancer human tumor 521955-158-R2-J5-PDC cell line growth inhibition [GQUAD];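 also: spheroids exposed to agents for one week before reading; 100% = DMSO vehicle control viability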
MEASUREMENT_CONTEXT: second compound 10 µM; first compound 0.00316 µM; active compounds read low
Label satisfied when viability, T/C < 60%; otherwise not satisfied.

{"MOLECULE": "CC[C@@]1(O)C(=O)OCc2c1cc1n(c2=O)Cc2cc3c(CN(C)C)c(O)ccc3nc2-1 + CN(C)c1ccc(Nc2c3ccc(NC(=O)CCN4CCCC4)cc3nc3cc(NC(=O)CCN4CCCC4)ccc23)cc1", "ASSAY_SYSTEM": "521955-158-R2-J5-PDC complex spheroid viability", "CLASS_NAME": "not satisfied"}
{"MOLECULE": "CC[C@@]1(O)C(=O)OCc2c1cc1n(c2=O)Cc2cc3c(CN(C)C)c(O)ccc3nc2-1 + Cc1[nH]c2ccc(F)cc2c1-c1nc2c3cccnc3c3ncccc3c2[nH]1", "ASSAY_SYSTEM": "521955-158-R2-J5-PDC complex spheroid viability", "CLASS_NAME": "not satisfied"}
{"MOLECULE": "Cn1ncnc1[C@H]1c2n[nH]c(=O)c3cc(F)cc(c23)N[C@@H]1c1ccc(F)cc1 + CN(C)c1ccc(Nc2c3ccc(NC(=O)CCN4CCCC4)cc3nc3cc(NC(=O)CCN4CCCC4)ccc23)cc1", "ASSAY_SYSTEM": "521955-158-R2-J5-PDC complex spheroid viability", "CLASS_NAME": "not satisfied"}
{"MOLECULE": "Cn1ncnc1[C@H]1c2n[nH]c(=O)c3cc(F)cc(c23)N[C@@H]1c1ccc(F)cc1 + Cc1cnc(CNC(=O)c2c(=O)c3ccc(N4CCCN(C)CC4)nc3n3c2sc2ccccc23)cn1", "ASSAY_SYSTEM": "521955-158-R2-J5-PDC complex spheroid viability", "CLASS_NAME": "satisfied"}
{"MOLECULE": "CCc1c2c(nc3ccc(O)cc13)-c1cc3c(c(=O)n1C2)COC(=O)[C@]3(O)CC + CN(C)c1ccc(Nc2c3ccc(NC(=O)CCN4CCCC4)cc3nc3cc(NC(=O)CCN4CCCC4)ccc23)cc1", "ASSAY_SYSTEM": "521955-158-R2-J5-PDC complex spheroid viability", "CLASS_NAME": "satisfied"}
{"MOLECULE": "Cc1[nH]c2ccccc2c1CCNCc1ccc(/C=C/C(=O)NO)cc1 + CN(C)c1ccc(Nc2c3ccc(NC(=O)CCN4CCCC4)cc3nc3cc(NC(=O)CCN4CCCC4)ccc23)cc1", "ASSAY_SYSTEM": "521955-158-R2-J5-PDC complex spheroid viability", "CLASS_NAME": "not satisfied"}
{"MOLECULE": "CC[C@@]1(O)C(=O)OCc2c1cc1n(c2=O)Cc2cc3c(CN(C)C)c(O)ccc3nc2-1 + Cc1cnc(CNC(=O)c2c(=O)c3ccc(N4CCCN(C)CC4)nc3n3c2sc2ccccc23)cn1", "ASSAY_SYSTEM": "521955-158-R2-J5-PDC complex spheroid viability", "CLASS_NAME": "satisfied"}
{"MOLECULE": "CCc1c2c(nc3ccc(O)cc13)-c1cc3c(c(=O)n1C2)COC(=O)[C@]3(O)CC + Cc1[nH]c2ccc(F)cc2c1-c1nc2c3cccnc3c3ncccc3c2[nH]1", "ASSAY_SYSTEM": "521955-158-R2-J5-PDC complex spheroid viability", "CLASS_NAME": "satisfied"}
{"MOLECULE": "Cc1[nH]c2ccccc2c1CCNCc1ccc(/C=C/C(=O)NO)cc1 + Cc1[nH]c2ccc(F)cc2c1-c1nc2c3cccnc3c3ncccc3c2[nH]1", "ASSAY_SYSTEM": "521955-158-R2-J5-PDC complex spheroid viability", "CLASS_NAME": "not satisfied"}
{"MOLECULE": "Cn1ncnc1[C@H]1c2n[nH]c(=O)c3cc(F)cc(c23)N[C@@H]1c1ccc(F)cc1 + Cc1[nH]c2ccc(F)cc2c1-c1nc2c3cccnc3c3ncccc3c2[nH]1", "ASSAY_SYSTEM": "521955-158-R2-J5-PDC complex spheroid viability", "CLASS_NAME": "not satisfied"}
{"MOLECULE": "Cc1[nH]c2ccccc2c1CCNCc1ccc(/C=C/C(=O)NO)cc1 + Cc1cnc(CNC(=O)c2c(=O)c3ccc(N4CCCN(C)CC4)nc3n3c2sc2ccccc23)cn1", "ASSAY_SYSTEM": "521955-158-R2-J5-PDC complex spheroid viability", "CLASS_NAME": "satisfied"}
{"MOLECULE": "CCc1c2c(nc3ccc(O)cc13)-c1cc3c(c(=O)n1C2)COC(=O)[C@]3(O)CC + Cc1cnc(CNC(=O)c2c(=O)c3ccc(N4CCCN(C)CC4)nc3n3c2sc2ccccc23)cn1", "ASSAY_SYSTEM": "521955-158-R2-J5-PDC complex spheroid viability", "CLASS_NAME": "satisfied"}

* * *

System: 521955-158-R2-J5-PDC complex spheroid viability
TEST_DETAILS: Anticancer human tumor 521955-158-R2-J5-PDC cell line growth inhibition [GQUAD];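 also: spheroids exposed to agents for one week before reading; 100% = DMSO vehicle control viability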
MEASUREMENT_CONTEXT: second compound 1 µM; first compound 0.1 µM; active compounds read low
Consider the following molecules and their measured viability, T/C readings.

{"MOLECULE": "CC1COCCN1c1cc(-c2ccnn2C)c2ccnc(-c3ccn[nH]3)c2n1 (stereo unspecified) + Cc1[nH]c2ccc(F)cc2c1-c1nc2c3cccnc3c3ncccc3c2[nH]1", "viability, T/C [%]": 16.1}
{"MOLECULE": "CC1COCCN1c1cc(C2(S(C)(=N)=O)CC2)nc(-c2ccnc3[nH]ccc23)n1 (stereo unspecified) + Cc1cnc(CNC(=O)c2c(=O)c3ccc(N4CCCN(C)CC4)nc3n3c2sc2ccccc23)cn1", "viability, T/C [%]": 24.5}
{"MOLECULE": "COc1cc(C2c3cc4c(cc3C(OC3OC5COC(C)OC5C(O)C3O)C3COC(=O)C23)OCO4)cc(OC)c1O (stereo unspecified) + Cc1[nH]c2ccc(F)cc2c1-c1nc2c3cccnc3c3ncccc3c2[nH]1", "viability, T/C [%]": 114}
{"MOLECULE": "O=c1[nH]cc(F)c(=O)[nH]1 + CN(C)c1ccc(Nc2c3ccc(NC(=O)CCN4CCCC4)cc3nc3cc(NC(=O)CCN4CCCC4)ccc23)cc1", "viability, T/C [%]": 82.8}
{"MOLECULE": "O=c1[nH]cc(F)c(=O)[nH]1 + Cc1cnc(CNC(=O)c2c(=O)c3ccc(N4CCCN(C)CC4)nc3n3c2sc2ccccc23)cn1", "viability, T/C [%]": 22.5}
{"MOLECULE": "CC1COCCN1c1cc(C2(O)CC3CCC(C2)O3)c2cnn(-c3ccn[nH]3)c2n1 (stereo unspecified) + CN(C)c1ccc(Nc2c3ccc(NC(=O)CCN4CCCC4)cc3nc3cc(NC(=O)CCN4CCCC4)ccc23)cc1", "viability, T/C [%]": 17.6}

* * *

Tested on: 521955-158-R2-J5-PDC complex spheroid viability
TEST_DETAILS: Anticancer human tumor 521955-158-R2-J5-PDC cell line growth inhibition [GQUAD];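 also: spheroids exposed to agents for one week before reading; 100% = DMSO vehicle control viability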
MEASUREMENT_CONTEXT: second compound 0.316 µM; first compound 0.0316 µM; active compounds read low
From the text: DNA G-quadruplex Stabilizer Agents in Combinations in Complex Spheroids A high-throughput screen of multi-cell type tumor spheroids was designed to identify active combinations of DNA G-quadruplex stabilizer agents and targeted small molecules. […] Compounds. […] If the clinical Cmax for an agent had not been determined, the highest concentration tested was 10 microM. […]
Simple rule here: viability, T/C less than 40% is Yes, otherwise No.

{"MOLECULE": "O=C(c1cc(Cc2n[nH]c(=O)c3ccccc23)ccc1F)N1CCN(C(=O)C2CC2)CC1 + Cc1cnc(CNC(=O)c2c(=O)c3ccc(N4CCCN(C)CC4)nc3n3c2sc2ccccc23)cn1", "CLASS_NAME": "Yes"}
{"MOLECULE": "Cn1ncnc1[C@H]1c2n[nH]c(=O)c3cc(F)cc(c23)N[C@@H]1c1ccc(F)cc1 + Cc1cnc(CNC(=O)c2c(=O)c3ccc(N4CCCN(C)CC4)nc3n3c2sc2ccccc23)cn1", "CLASS_NAME": "Yes"}
{"MOLECULE": "CCCS(=O)(=O)Nc1ccc(F)c(C(=O)c2c[nH]c3ncc(-c4ccc(Cl)cc4)cc23)c1F + CN(C)c1ccc(Nc2c3ccc(NC(=O)CCN4CCCC4)cc3nc3cc(NC(=O)CCN4CCCC4)ccc23)cc1", "CLASS_NAME": "No"}
{"MOLECULE": "CC(C)(O)C1CCC(Nc2ccc3ncc(-c4cccc(C(F)(F)F)c4)n3n2)CC1 (stereo not given) + Cc1cnc(CNC(=O)c2c(=O)c3ccc(N4CCCN(C)CC4)nc3n3c2sc2ccccc23)cn1", "CLASS_NAME": "Yes"}
{"MOLECULE": "C#Cc1c(F)ccc2cc(O)cc(-c3ncc4c(N5CC6CCC(C5)N6)nc(OCC56CCCN5CC(F)C6)nc4c3F)c12 (stereo not given) + Cc1[nH]c2ccc(F)cc2c1-c1nc2c3cccnc3c3ncccc3c2[nH]1", "CLASS_NAME": "No"}
